Provide the reported pKi of each item.
# Protocol notes: Inhibition of human lung beta tryptase by chromogenic assay
Scale: negative log10 of molar concentration, which is what pKi denotes.

Summary for this compound, NCc1ccc2c(c1)C1(CCN(C(=O)c3ccc(C#Cc4ccccc4Cl)o3)CC1)CO2 : pKi is 8.47

According to the records, this compound NCc1cccc(C2CCN(C(=O)c3ccc(C#Cc4ccccc4)o3)CC2)c1 displays pKi of 8.06

Sample NCc1ccc2c(c1)C1(CCN(C(=O)c3ccc(C#Cc4ccccc4F)o3)CC1)CO2 ; pKi observed: 8.52

Short answer for Cc1ccccc1C#Cc1ccc(C(=O)N2CCC3(CC2)COc2ccc(CN)cc23)o1 : pKi was 8.40

Lookup result for NCc1ccc2c(c1)C1(CCN(C(=O)c3ccc(C#Cc4ccccc4)o3)CC1)CN2S(=O)(=O)c1ccccc1 ; measured pKi: 7.80

* * *

# Protocol notes: Oral bioavailability in dog
# Type: ADME, organism-based, Canis lupus familiaris
# Setup conditions: in vivo
Value type: bioavailability (%)
Answer format: numeric, % implied, no suffix.

So, NCc1ccc2c(c1)C1(CCN(C(=O)c3ccc(C#Cc4ccccc4)o3)CC1)CO2 ? Its bioavailability was 65

* * *

# Protocol notes: Oral bioavailability in rat
# Type: ADME, organism-based
# Setup conditions: in vivo
Value type: bioavailability (%)
Please respond with the number in % and leave the unit unwritten.

Record NCc1ccc2c(c1)C1(CCN(C(=O)c3ccc(C#Cc4ccccc4)o3)CC1)CO2 , field bioavailability: 100

* * *

pIC50: −log10 of the molar value.
Value type: pIC50

Cytochrome P450 2C19 (Homo sapiens) assay, compound NCc1ccc2c(c1)C1(CCN(C(=O)c3ccc(C#Cc4ccccc4)o3)CC1)CO2 , recorded pIC50 = < 4.70

* * *

Exercise: state measured IC50 for each of the compounds provided.
# Protocol notes: Inhibition of human lung beta tryptase by chromogenic assay
All answers are understood in µM, so give the number only.

Record summary for NCc1ccc2c(c1)C1(CCN(C(=O)c3ccc(C#Cc4ccccc4Cl)o3)CC1)CO2 : reported IC50 = 0.0052

Reported IC50 ( NCc1ccc2c(c1)C1(CCN(C(=O)c3ccc(C#Cc4ccccc4)o3)CC1)CN2S(=O)(=O)c1ccccc1 ) = 0.0057

Please fill in: IC50 reported for NCc1ccc2c(c1)C1(CCN(C(=O)c3ccc(C#Cc4ccccc4F)o3)CC1)CO2 = 0.0043

compound NCc1ccc2c(c1)C1(CCN(C(=O)c3ccc(-c4ccccc4)o3)CC1)CO2 , IC50 observed: 0.028

The value of IC50 measured for the compound Cc1ccc(C#Cc2ccc(C(=O)N3CCC4(CC3)COc3ccc(CN)cc34)o2)cc1 turned out to be 0.0083

Reported IC50 for N=C(N)c1ccc2c(c1)C1(CCN(C(=O)c3ccc(C#Cc4ccccc4)o3)CC1)CO2 was 0.0045

So, NCc1ccc2c(c1)C1(CCN(C(=O)c3ccc(Sc4ccccc4)o3)CC1)CO2 ? Its IC50 was 0.09

Reported IC50 ( N/N=C(\N)c1ccc2c(c1)C1(CCN(C(=O)c3ccc(C#Cc4ccccc4)o3)CC1)CO2 ) = 0.059

Noted for COc1ccccc1C#Cc1ccc(C(=O)N2CCC3(CC2)COc2ccc(CN)cc23)o1 : its IC50 reads 0.013

Kindly note the recorded IC50 for CS(=O)(=O)N1CC2(CCN(C(=O)c3ccc(C#Cc4ccccc4)o3)CC2)c2cc(CN)ccc21 , which is 0.0018

Please fill in: IC50 reported for NCc1ccc2c(c1)C1(CCN(C(=O)c3ccc(CCc4ccccc4)o3)CC1)CO2 = 0.082

The compound listed as CC(=O)N1C[C@H](O)C[C@H]1C(=O)NC(CCCNC(=N)N)C(=O)c1nc2ccccc2s1 (some centres undefined) has a reported IC50 of 0.013

Note to self: IC50 recorded for NCc1ccc2c(c1)C1(CCN(C(=O)c3ccc(C#Cc4ccccc4)o3)CC1)CN2 was 0.023

Record summary for CC(=O)N1CC2(CCN(C(=O)c3ccc(C#Cc4ccccc4)o3)CC2)c2cc(CN)ccc21 : reported IC50 = 0.015

Value of IC50 reported for the compound CC(C)(C)c1ccc(C#Cc2ccc(C(=O)N3CCC4(CC3)COc3ccc(CN)cc34)o2)cc1 is 0.7

Sample NCc1ccc2c(c1)C1(CC2)CCN(C(=O)c2ccc(C#Cc3ccccc3)o2)CC1 ; IC50 observed: 0.0031

Given item NCc1ccc2c(c1)C1(CCN(C(=O)c3ccc(C#Cc4ccc(O)cc4)o3)CC1)CO2 , the value recorded as its IC50 is 3.2

Per the records, this compound ( Cc1ccccc1C#Cc1ccc(C(=O)N2CCC3(CC2)COc2ccc(CN)cc23)o1 ) has IC50 equal to 0.0012

Kindly note the recorded IC50 for C/N=C(/N)c1ccc2c(c1)C1(CCN(C(=O)c3ccc(C#Cc4ccccc4)o3)CC1)CO2 , which is 0.78

* * *

# Protocol notes: Metabolic stability in human liver microsomes assessed as half life
# Type: ADME, Microsome
Value type: half-life

For reference, reported half-life for NCc1ccc2c(c1)C1(CCN(C(=O)c3ccc(C#Cc4ccccc4)o3)CC1)CO2 stands at > 1.67 h

* * *

# Protocol notes: Inhibition of human lung beta tryptase by chromogenic assay
Value type: pKi
pKi here: minus log base 10 of the concentration, concentration in moles per litre.

pKi for NCc1cccc(C2CCN(C(=O)c3ccc(C#Cc4ccccc4F)o3)CC2)c1 is 7.51

Reported pKi for CC(=O)N1C[C@H](O)C[C@H]1C(=O)NC(CCCNC(=N)N)C(=O)c1nc2ccccc2s1 (stereo partly drawn) was 8.00

For CS(=O)(=O)N1CC2(CCN(C(=O)c3ccc(C#Cc4ccccc4)o3)CC2)c2cc(CN)ccc21 the compound record lists pKi as 8.15

* * *

Target sequence: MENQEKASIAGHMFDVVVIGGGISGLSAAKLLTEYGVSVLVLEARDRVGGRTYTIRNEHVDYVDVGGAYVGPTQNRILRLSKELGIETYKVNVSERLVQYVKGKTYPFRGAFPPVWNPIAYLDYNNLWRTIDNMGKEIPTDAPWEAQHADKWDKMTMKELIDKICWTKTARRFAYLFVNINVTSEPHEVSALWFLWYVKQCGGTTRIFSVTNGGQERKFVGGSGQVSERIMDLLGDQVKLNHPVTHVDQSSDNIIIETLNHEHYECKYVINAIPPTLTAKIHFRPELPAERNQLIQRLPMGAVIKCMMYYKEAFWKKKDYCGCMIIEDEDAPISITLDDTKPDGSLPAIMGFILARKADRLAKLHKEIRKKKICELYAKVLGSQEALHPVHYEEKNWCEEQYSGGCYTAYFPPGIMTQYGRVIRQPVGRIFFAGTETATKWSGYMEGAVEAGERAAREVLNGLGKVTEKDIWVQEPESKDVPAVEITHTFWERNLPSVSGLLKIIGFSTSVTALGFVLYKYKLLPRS
Value type: pIC50
pIC50 here: minus log base 10 of the concentration, concentration in moles per litre.

// pIC50 lookup, compound = NCc1ccc2c(c1)C1(CCN(C(=O)c3ccc(C#Cc4ccccc4)o3)CC1)CO2 , result: 4.64

* * *

So I've got a bunch of compounds here, and I need their IC50 values.
# System tested: Trypsin (Homo sapiens, UniProt P07477+P07478+P35030)
# Protocol notes: Inhibition of human trypsin by chromogenic assay
# Type: protein assay
Give the quantity in µM, number only.

Reported IC50 for N=C(N)c1ccc2c(c1)C1(CCN(C(=O)c3ccc(C#Cc4ccccc4)o3)CC1)CO2 was 1.4

Form: compound = NCc1ccc2c(c1)C1(CCN(C(=O)c3ccc(C#Cc4ccccc4Cl)o3)CC1)CO2 ; IC50 = 38

The compound identified as NCc1ccc2c(c1)C1(CCN(C(=O)c3ccc(C#Cc4ccccc4)o3)CC1)CN2S(=O)(=O)c1ccccc1 registered its IC50 at 6.7

Per the record, CC(C)(C)c1ccc(C#Cc2ccc(C(=O)N3CCC4(CC3)COc3ccc(CN)cc34)o2)cc1 has IC50 of 13

For NCc1ccc2c(c1)C1(CC2)CCN(C(=O)c2ccc(C#Cc3ccccc3)o2)CC1 the compound record lists IC50 as 7.7

Value of IC50 reported for the compound Cc1ccc(C#Cc2ccc(C(=O)N3CCC4(CC3)COc3ccc(CN)cc34)o2)cc1 is 13

GET /value?item= NCc1ccc2c(c1)C1(CCN(C(=O)c3ccc(C#Cc4ccccc4)o3)CC1)CO2 &field=IC50 returns 18

Data point: NCc1ccc2c(c1)C1(CCN(C(=O)c3ccc(C#Cc4ccc(O)cc4)o3)CC1)CO2 ; IC50 = 23

Looking up NCc1ccc2c(c1)C1(CCN(C(=O)c3ccc(CCc4ccccc4)o3)CC1)CO2 , I see its IC50 listed as 47

The compound listed as NCc1ccc2c(c1)C1(CCN(C(=O)c3ccc(Sc4ccccc4)o3)CC1)CO2 shows IC50 equal to 9.1

Lab note: COc1ccccc1C#Cc1ccc(C(=O)N2CCC3(CC2)COc2ccc(CN)cc23)o1 gave IC50 of 5.5

Form: compound = Cc1ccccc1C#Cc1ccc(C(=O)N2CCC3(CC2)COc2ccc(CN)cc23)o1 ; IC50 = 12

IC50 reported for this compound NCc1ccc2c(c1)C1(CCN(C(=O)c3ccc(C#Cc4ccccc4F)o3)CC1)CO2 : 12

IC50 for NC(=O)c1ccc2c(c1)C1(CCN(C(=O)c3ccc(C#Cc4ccccc4)o3)CC1)CO2 is 39

// IC50 value for NCc1ccc2c(c1)C1(CCN(C(=O)c3ccc(-c4ccccc4)o3)CC1)CO2 : 8.6
